Biological target: FHA variant E1 (yeast)
Assay: ELISA; competition: FHA clone binding to immobilized phosphorylated Akt1 peptide in the presence of free phosphorylated peptide; IC50
pIC50: −log10 of the molar value. Non-standard residues stand in square brackets, D forms with d. *: point of attachment. Biotin = O=C1N[C@H]2[C@H](CS[C@H]2CCCCC(=O)*)N1; pT = C[C@@H](OP(=O)(O)O)[C@H](N)C(=O)O
READOUT KIND: pIC50

>>> val("Biotin-KDGATMK[pT]FCGTPEY-NH2 (not fully specified (residue 12)) [Akt1-pT308 peptide]")
5.71
